src = patent US5214055A

Molecular target: 5HT1A receptor (Rattus norvegicus, UniProt P19327)
Construct: Subcutaneous injection of rats with 8-OH-DPAT spontaneously induces tail movements; from tissue; host or cells: whole living rat (in vivo)
Sequence (P19327 whole entry): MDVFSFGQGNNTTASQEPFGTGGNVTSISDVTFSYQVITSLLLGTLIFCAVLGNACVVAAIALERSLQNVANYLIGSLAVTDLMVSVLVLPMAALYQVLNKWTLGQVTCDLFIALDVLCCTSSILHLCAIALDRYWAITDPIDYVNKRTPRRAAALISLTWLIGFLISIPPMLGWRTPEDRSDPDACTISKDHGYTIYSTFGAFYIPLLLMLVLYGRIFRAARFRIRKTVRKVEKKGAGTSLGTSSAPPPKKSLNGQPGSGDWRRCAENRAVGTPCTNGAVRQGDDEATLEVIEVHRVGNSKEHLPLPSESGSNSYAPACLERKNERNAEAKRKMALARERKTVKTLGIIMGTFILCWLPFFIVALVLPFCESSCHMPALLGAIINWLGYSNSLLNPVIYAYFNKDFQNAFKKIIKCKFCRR
Experiment: "Tail-Flicks" test on rats (reduction of 8-OH-DPAT induced tail movements)
Format: in vivo
Conditions: sc, tail movements induced by subcutaneous 8-OH-DPAT, read-out: ED50 (amount that reduces 8-OH-DPAT action by 50%)
Where a name gives a salt, the structure may show the parent alone.
ASSAY_ENDPOINT: ED50 (mg/kg)
Numbers only, in mg/kg.

# example entries with known answers
>  <MOLECULE>
CCCOC(=O)N(C)C1CCN(C2Cc3ccccc3C2)CC1

>  <ED50 [mg/kg]>
2.5

$$$$
>  <MOLECULE>
CCOC(=O)N(C)C1CCN(CC2Cc3ccccc32)CC1 (centres unmarked) [Example 23, hydrochloride]

>  <ED50 [mg/kg]>
2.5

$$$$
>  <MOLECULE>
C=COC(=O)N(C)C1CCN(CC2Cc3ccccc32)CC1 (racemic)

>  <ED50 [mg/kg]>
1.25

$$$$
>  <MOLECULE>
CN(C(=O)OC(C)(C)C)C1CCN(CC2Cc3ccccc32)CC1 (centres unmarked)

>  <ED50 [mg/kg]>
2.5

$$$$

Now consider a different molecule.
### Prompt Query: ED50; subject: CC(C)COC(=O)N(C)C1CCN(CC2Cc3ccccc32)CC1 (centres unmarked) [Example 15, fumarate]
### Response 1.25

----------
Target: sigma receptor
Experiment: Sigma binding test (in vitro), inhibition of [3H] ditolylguanidine binding
Design: species or system guinea pig
Conditions: guinea pig central nervous system microsomes, 0.5 mg of prot/ml; ligand 2 nM; non-specific: 10 μM haloperidol
Where a name gives a salt, the structure may show the parent alone.
ASSAY_ENDPOINT: pIC50
Answers are plain numbers, as −log10 of the molar value.

Known results for compounds:
>  <COMPOUND>
CCCOC(=O)N(C)C1CCN(C2Cc3ccccc3C2)CC1 [Example 44]

>  <SUBJECT_OF_TEST>
sigma receptor

>  <pIC50>
7.40

$$$$
>  <COMPOUND>
CN(C(=O)OCc1ccccc1)C1CCN(CC2Cc3ccccc32)CC1 (stereo not drawn) [Example 19, hydrochloride]

>  <SUBJECT_OF_TEST>
sigma receptor

>  <pIC50>
7.52

$$$$
>  <COMPOUND>
CC(C)COC(=O)N(C)C1CCN(CC2Cc3ccccc32)CC1 (stereo not drawn) [Example 15, fumarate]

>  <SUBJECT_OF_TEST>
sigma receptor

>  <pIC50>
7.00

$$$$

Fill in pIC50 for each of the 3 compounds listed.
1. C=COC(=O)N(C)C1CCN(CC2Cc3ccccc32)CC1 (racemic) [Example 42]
2. CC(C)COC(=O)N(C)C1CCN(C2Cc3ccccc3C2)CC1 [Example 43, fumarate]
3. CCCOC(=O)N(C)C1CCN(CC2Cc3ccccc32)CC1 (stereo not drawn) [Example 9, hydrochloride]

### Response
1. 7.30
2. 8.40
3. 7.52

----------
For each of the molecules below, state its ED50.
Biological target: 5HT1A receptor (Rattus norvegicus)
Construct: Subcutaneous injection of rats with 8-OH-DPAT spontaneously induces tail movements; from tissue; host or cells: whole living rat (in vivo)
Assay: "Tail-Flicks" test on rats (reduction of 8-OH-DPAT induced tail movements)
Type: in vivo
Details: sc, tail movements induced by subcutaneous 8-OH-DPAT, read-out: ED50 (amount that reduces 8-OH-DPAT action by 50%)
Counter-ions that a name gives are not always drawn.
In your response, put the unit directly after the numeric value.

Consider the following illustrative entries.
>  <MOLECULE>
CCCOC(=O)N(C)C1CCN(CC2Cc3ccccc32)CC1 (stereo not drawn) [Example 9, hydrochloride]

>  <ED50>
0.31 mg/kg

$$$$
>  <MOLECULE>
COC(=O)N(C)C1CCN(CC2Cc3ccccc32)CC1 (stereo not drawn) [Example 8, hydrochloride]

>  <ED50>
1.25 mg/kg

$$$$
>  <MOLECULE>
CCOC(=O)N(CC)C1CCN(CC2Cc3ccccc32)CC1 (stereo not drawn) [Example 13, hydrochloride]

>  <ED50>
1.25 mg/kg

$$$$
>  <MOLECULE>
CCOC(=O)N(C)C1CCN(CC2Cc3c2ccc2c3OCO2)CC1 (stereo not drawn) [Example 28]

>  <ED50>
2.5 mg/kg

$$$$
>  <MOLECULE>
CCN(C(C)=O)C1CCN(CC2Cc3ccccc32)CC1 (stereo not drawn) [Example 21, hydrochloride]

>  <ED50>
0.63 mg/kg

$$$$

### Prompt Tell me the measured ED50 of CCN(C(=O)OC)C1CCN(CC2Cc3ccccc32)CC1 (stereo not drawn) [Example 14, hydrochloride] , please.
### Response 0.02 mg/kg

----------
Molecular target: sigma receptor
Assay: Sigma binding test (in vitro), inhibition of [3H] ditolylguanidine binding
Parameters: species or system guinea pig
Structures can show the parent of a compound that is named as a salt.
ASSAY_ENDPOINT: IC50 (nM)
Answers are plain numbers, in nM.

### Prompt If you can, please state the reported IC50 value of CN(C(=O)Oc1ccccc1)C1CCN(CC2Cc3ccccc32)CC1 (stereo not shown) [Example 12, hydrochloride] .
### Response 30
